- Test system: COLO-829
- methodNotes: CellTiter-Glo proliferation and viability assay
- Format: cell-based
- assaySetup: Homo sapiens, read-out: Rel IC50
experimentalReadout: IC50 (nM)
Give bare numbers, in nM.

q: Look up IC50 for this molecule: CNc1ncc2cc(-c3cc(NC(=O)NCCC(C)(C)C)c(F)cc3C)c(C)nc2n1
a: 0.04

###

- Tested on: PC-3
- methodNotes: CellTiter-Glo proliferation and viability assay
- Format: cell-based
- assaySetup: Homo sapiens, read-out: Abs IC50
experimentalReadout: IC50

q: Look up IC50 for this compound: CNc1ncc2cc(-c3cc(NC(=O)NCCC(C)(C)C)c(F)cc3C)c(C)nc2n1 [Example 1]
a: > 20 nM
